Several reports have described pIC50 for Dihydroorotate dehydrogenase (quinone), mitochondrial (Homo sapiens); a selection of those results is presented here.
pIC50: −log10 of the molar value.
Outcome measure: pIC50

Before answering, review these 3 worked examples.
Molecule	Test target	pIC50
CCn1c(CO)nn(-c2ccc3c(=O)n(-c4c(F)cccc4Cl)cc(C4(C)CC4)c3c2)c1=O	Dihydroorotate dehydrogenase (quinone), mitochondrial (Homo sapiens)	8.78
CC[C@H](C)N1CN(c2c(F)cccc2Cl)C(=O)c2cc(F)c(-n3nc(CO)n(CC)c3=O)nc21	Dihydroorotate dehydrogenase (quinone), mitochondrial (Homo sapiens)	9.15
CCC(CC)n1cc(C(C)C)c2cc(-n3nc(CO)n(CC)c3=O)c(F)cc2c1=O	Dihydroorotate dehydrogenase (quinone), mitochondrial (Homo sapiens)	7.87

[1] Cc1cc(C(=O)O)c2nc(-c3ccc(-c4ccc(OCc5ccncc5)cc4)cc3)[nH]c2c1
[2] CCn1c(CO)nn(-c2cc3c(C(C)C)cn(-c4nccc(OC)c4Cl)c(=O)c3cc2F)c1=O
Could you kindly indicate whether 1 or 2 has the higher pIC50 value? # answer = label of selected item
2
(2: 7.98, 1: 5.76)

[a] C=C(C)c1cn(-c2cc(F)ccc2C)c(=O)c2cc(F)c(-n3nc(CO)n(CC)c3=O)cc12
[b] C=C(C)C1CN(c2ccccc2C)C(=O)c2cc(F)c(-n3nc(CO)n(CC)c3=O)cc21 (single isomer, unassigned)
Could you kindly indicate whether a or b has the higher pIC50 value? # answer = label of selected item
a

---

Several reports have described pIC50 for UniProt:Q02127; a selection of those results is presented here.
pIC50: −log10 of the molar value.

Chemical structure	Outcome measure	Result
Cc1nc2c(C(=O)O)cc(-c3c(F)c(F)c(-c4ccccc4CN4CCCCC4)c(F)c3F)cc2[nH]1	pIC50	8.00 to 9.00
Cn1nnc2cc(-c3ccc(-c4ccccc4)cc3)cc(C(=O)O)c21	pIC50	6.00 to 7.00

Answer with pIC50 of "C[C@H](Oc1cc(-n2nc3n(c2=O)CCC2(CC2)C3)c(F)cc1C(=O)Nc1c(F)cccc1Cl)C1CCCCC1" measured for UniProt:Q02127.
> 7.30

Answer with pIC50 of "FC(F)(F)c1cc(Nc2ccc3ccccc3c2)n2ncnc2n1" measured for UniProt:Q02127.
< 3.70

---

Several reports have described pIC50 for Dihydroorotate dehydrogenase (quinone), mitochondrial (Homo sapiens, UniProt Q02127); a selection of those results is presented here.
pIC50: −log10 of the molar value.

Before answering, review these 3 worked examples.
Chemical structure	pIC50
Cc1ccc(Nc2ccc(-c3cccc(C(F)(F)F)c3)nc2)c(C(=O)O)c1	7.01
Cc1cc(F)ccc1NC(=O)c1cc(F)c(-n2nc3n(c2=O)CCC2(CC2)C3)cc1O[C@@H](C)C(F)(F)F	> 7.30
Cc1nc2c(C(=O)O)cc(-c3ccc(OCc4ccccc4)cc3)cc2[nH]1	8.00 to 9.00

With those in mind, consider the next compound.
Answer with pIC50 of "Cn1nnc2cc(-c3ccc(-c4ccccc4CN4CCOCC4)cc3)cc(C(=O)O)c21" measured for Dihydroorotate dehydrogenase (quinone), mitochondrial (Homo sapiens, UniProt Q02127).
6.00 to 7.00

---

Several reports have described IC50 for Dihydroorotate dehydrogenase (quinone), mitochondrial (Homo sapiens, UniProt Q02127); a selection of those results is presented here.
Outcome measure: IC50 (nM)

[P] Cc1c(-c2cccc(OC(F)(F)F)c2)cc(F)c(Nc2ncccc2C(=O)O)c1F
[Q] C=C(C)c1cn(-c2cccc(F)c2C)c(=O)c2cc(F)c(-n3nc(CO)n(CC)c3=O)cc12
[R] C=C(C)c1cn(-c2ccccc2C)c(=O)c2cc(F)c(-n3nc(CO)n(CC)c3=O)cc12
Order these by IC50, descending, and give the full ranking. Returns: the labels arranged in the requested order.
P, Q, R
(P: 6 nM, Q: 1.19 nM, R: 0.746 nM)

[a] CCn1c(CO)nn(-c2cc3c(cc2F)C(=O)N(c2c(F)cccc2Cl)CN3CC2CCCCC2)c1=O
[b] CCn1c(CO)nn(-c2cc3c(C(C)C)cc(-c4cc(O)ncc4C)nc3cc2F)c1=O
Could you kindly indicate whether a or b has the higher IC50 value? # answer = label of selected item
b

[a] CCCN1CN(c2c(F)cccc2Cl)C(=O)c2cc(F)c(-n3nc(CO)n(CC)c3=O)cc21
[b] O=C(O)c1cccc2[nH]c(-c3ccc(-c4cccc(F)c4)cc3)nc12
Please indicate which entry, a or b , has the lower recorded IC50 value. # answer = label of selected item
a
